Measured values drawn from patent US9440978B2 for this set.

- TESTED SYSTEM: human TRPV1 (Homo sapiens, UniProt Q8NER1)
- Sequence (Q8NER1 whole entry): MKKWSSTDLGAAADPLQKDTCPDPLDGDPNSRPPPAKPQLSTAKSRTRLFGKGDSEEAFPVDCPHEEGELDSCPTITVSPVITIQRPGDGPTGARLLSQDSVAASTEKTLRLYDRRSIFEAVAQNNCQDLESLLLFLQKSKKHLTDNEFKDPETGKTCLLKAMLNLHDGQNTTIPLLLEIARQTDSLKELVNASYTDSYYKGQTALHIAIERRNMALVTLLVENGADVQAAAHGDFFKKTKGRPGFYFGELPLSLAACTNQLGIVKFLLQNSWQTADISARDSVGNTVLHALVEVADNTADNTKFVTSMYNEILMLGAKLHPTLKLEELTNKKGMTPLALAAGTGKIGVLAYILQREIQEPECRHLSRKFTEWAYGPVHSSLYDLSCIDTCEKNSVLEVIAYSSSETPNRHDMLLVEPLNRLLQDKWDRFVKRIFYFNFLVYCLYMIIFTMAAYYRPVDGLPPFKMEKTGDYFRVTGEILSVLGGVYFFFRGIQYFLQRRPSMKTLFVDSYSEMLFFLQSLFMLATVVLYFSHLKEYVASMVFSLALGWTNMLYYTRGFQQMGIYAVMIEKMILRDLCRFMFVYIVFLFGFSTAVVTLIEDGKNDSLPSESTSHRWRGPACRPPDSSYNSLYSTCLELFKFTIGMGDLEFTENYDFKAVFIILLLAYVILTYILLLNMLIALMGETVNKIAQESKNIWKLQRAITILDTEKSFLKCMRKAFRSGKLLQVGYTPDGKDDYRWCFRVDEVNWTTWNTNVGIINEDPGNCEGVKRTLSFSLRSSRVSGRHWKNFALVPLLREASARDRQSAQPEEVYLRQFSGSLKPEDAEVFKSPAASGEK
- ASSAY PROTOCOL: Block of capsaicin-induced Ca2+ influx, human assay (hTRPV1/HEK293, FLIPR)
- CONDITION DETAILS: HEK293 cells transfected with human TRPV1; 150 nM capsaicin challenge; mean; > value = solubility limit in assay medium
Structures can show the parent of a compound that is named as a salt.
ASSAY METRIC: IC50 (nM)

COMPOUND: FC(F)(F)c1ccc(Nc2nc(N3CCC(N4CCCC4)CC3)nc3sc(Cc4c(Cl)cccc4Cl)nc23)cc1 [Example 77, trifluoroacetic acid salt]
IC50 (nM): 1120

(a) FC(F)(F)c1ccc(Nc2ncnc3sc(Cc4ccccc4Cl)nc23)nc1
(b) NC(=O)c1ccc(-c2ccccc2Cc2nc3c(Nc4ccc(C(F)(F)F)cc4)ncnc3s2)cc1
(c) Cc1cccc(C)c1Cc1nc2c(Nc3ccc(S(=O)(=O)N4CCOCC4)cc3)ncnc2s1
(d) Cc1cccc(C)c1Cc1nc2c(Nc3ccc(C(F)(F)F)cc3)ncnc2s1
(e) FC(F)(F)c1ccc(Nc2ncnc3sc(Cc4ccccc4-c4ccccc4)nc23)cc1
Qu. Rank descending by IC50. List the labels in the requested order.
Ans. b, e, a, c, d

(1) CS(=O)(=O)c1ccc(Nc2ncnc3sc(Cc4ccccc4Cl)nc23)cc1
(2) FC(F)(F)Oc1ccc(Nc2ncnc3sc(Cc4c(Cl)cccc4Cl)nc23)cc1
Qu. Could you tell me which of 1 and 2 has the lower IC50 reading? Kindly state the label of the option you pick.
Ans. 2

(A) CS(=O)(=O)c1ccc(Nc2ncnc3sc(Cc4c(Cl)cccc4Cl)nc23)cc1
(B) FC(F)(F)c1ccc(Nc2nc(NC3CCC3)nc3sc(Cc4c(Cl)cccc4Cl)nc23)cc1
Qu. Could you tell me which of A and B has the lower IC50 reading? Kindly state the label of the option you pick.
Ans. B
(B: 104 nM, A: 190 nM)
